Reference source: ChEMBL document CHEMBL1159269

- experimental.details: Inhibition of HIV2 reverse transcriptase p66/p51
- Set-up: species or system Human immunodeficiency virus 2
readout.type: pIC50
Numbers only, as −log10 of the molar value.

# annotated cases, reported pIC50 shown
COc1cc(O)c2c(=O)c3c(O)c(-c4c(O)c([C@@H]5O[C@H](CO)[C@@H](O)[C@H](O)[C@H]5O)c(O)c5c(=O)cc(-c6ccc(O)c(O)c6)oc45)cc(O)c3oc2c1 | 4.25
Cc1cn([C@H]2C[C@H](N=[N+]=[N-])[C@@H](CO)O2)c(=O)[nH]c1=O [ZIDOVUDINE] | 6.70
C=C1C(=O)O[C@@H](CCCCCCCCCCCCC)[C@@H]1C(=O)O [PROTOLICHESTERINIC ACID] | 4.53

We next turn to a different molecule, shown below.
Enquiry: Would you kindly share the measured pIC50 for CC1(C)CC[C@]2(C(=O)O)CC=C3[C@]4(C)CC[C@H]5C(C)(C)[C@@H](OC(=O)c6ccc(O)cc6)C[C@@H](O)[C@]5(C)[C@H]4CC[C@@]3(C)[C@H]2C1 ?
Return: 4.23
